- Assayed system: GST-tagged CgGal11Ap KIX domain (amino acids 1-86) (C. glabrata, UniProt P08515 1-218 = GST)
- Sequence (P08515 whole entry, the tested form may be a part): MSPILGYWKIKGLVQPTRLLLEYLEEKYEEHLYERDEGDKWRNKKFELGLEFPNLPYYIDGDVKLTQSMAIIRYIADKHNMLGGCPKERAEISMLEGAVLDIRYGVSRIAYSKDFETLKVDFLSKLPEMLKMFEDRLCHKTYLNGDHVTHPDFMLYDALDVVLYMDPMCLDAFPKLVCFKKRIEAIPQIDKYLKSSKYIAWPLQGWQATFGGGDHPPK
- Test summary: fluorescence polarization, FITC peptide with increasing GST-CgGal11Ap KIX
Ends that are not written are not given here. * marks the point of attachment. FITC = O=C1OC2(c3ccc(O)cc3Oc3cc(O)ccc32)c2ccc(NC(=S)*)cc21
Endpoint name: Kd

[in] Using the record for {FITC}-LGTLDEFVNKGDLNELYNSLWGDLFSDVYL (also called FITC-labled-CgPdr1pAD-30; Fluorescein-tagged CgPdr1pAD-30 peptide) [FITC-CgPdr1pAD-30 (FITC-LGTLDEFVNKGDLNELYNSLWGDLFSDVYL)] , report its Kd.
[out] ~780 nM
